System: Herpes Simplex Virus Type 1, Strain 377
Measurement notes: antiviral activity vs herpes simplex virus type 1 (virus-induced cytopathogenic effects in host cells)
Assay type: cell-based
Applied conditions: Human alphaherpesvirus 1, Vero, HSV-1 strain 377; rabbit kidney cells or Vero cells; read-out: MIC50 (concentration for 50% inhibition of virus-induced cytopathogenic effects)
Property label: EC50

Known results for compounds:
* Nc1nc(Cl)c2nnn([C@@H]3C[C@H](CO)[C@@H](O)C3)c2n1 (relative stereo) | < 1 mg/L
* Nc1nc2c(ncn2[C@@H]2C[C@H](CO)[C@@H](O)C2)c(=S)[nH]1 (relative stereo) | < 3.2 mg/L
* Nc1nc2c(ncn2[C@@H]2C[C@H](CO)[C@@H](O)C2)c(=O)[nH]1 (relative stereo) | < 0.3 mg/L

Field: next compound
# input Need EC50 of Nc1nc(N)c2nnn([C@@H]3C[C@H](CO)[C@@H](O)C3)c2n1 (relative stereo) , thanks.
# output < 3.2 mg/L

Values compiled from patent US4543255A.
